# test: NCI Yeast Anticancer Drug Screen. Data for the bub3 strain (AID 167)
# measurement-conditions: S. cerevisiae bub3 mutant strain, at 50.0 µM, hits give high values
About 79,000 compounds went through this panel and 15% of them were active in at least one assay; those are over-represented in the sample as a whole.
growth inhibition values by entry
Write down the numeric answer in % and omit the unit.

query: Answer with reported growth inhibition of CC(C#N)(CCl)OS(=O)(=O)CCCl (stereo not given)
result: 48.7

query: Answer with reported growth inhibition of CCOC(=O)CCCN1CCC=C(C#N)C1
result: 13

query: Answer with reported growth inhibition of CC(Br)C(=O)c1ccc2ncccc2c1 (stereo not given)
result: 12.8

query: Answer with reported growth inhibition of COc1ccc(-c2c(C#N)c(N)n(C3OCC(O)C(O)C3O)c(=S)c2C#N)cc1 (stereo not given)
result: -1.9

query: Answer with reported growth inhibition of Nc1nc(-c2cc(C(c3ccccc3)c3ccccc3)nc(N)n2)cc(C(c2ccccc2)c2ccccc2)n1
result: -2.3
